- targetOfAssay: T1, chromodomain of CBX7 (human, UniProt O95931 8-62)
- T1 sequence (looked up): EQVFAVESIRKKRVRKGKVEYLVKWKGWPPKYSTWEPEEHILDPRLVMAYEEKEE
- assay: AlphaScreen or HTRF
pIC50: −log10 of the molar value. diethyl = not defined here
Note to self: values exactly at 7 are yes. So pIC50 at or above 7 is yes, below is no.

# binder, classLabel
rows = [
    ("{4‑tBu‑Bz}-F(CH2NHBoc)ALK(diethyl)S-OMe (reading uncertain) [compound 48]", "yes"),
    ("{4‑tBu‑Bz}-FVLK(diethyl)S-OMe (reading uncertain) [compound 43]", "no"),
]

Attention now turns to another entry.
Input line: Could you verify whether the entry {4‑tBu‑Bz}-FALK(diethyl)S-NMe2 (reading uncertain) [compound 45] shows pIC50 of no less than 7?
Output line: yes
